assay: yeast display, Sf9 membrane polyspecificity reagent, FACS + sequencing; frameworks hold sequencing errors
property-name: polyreactivity (PSR sort gate)

// below: answered sequences
Would you mind telling me what polyreactivity (PSR sort gate) value was observed for QVQLVESGGGLVQAGGSHRLSCAASGRTFEYNAMGWYRQAPGKERELVATITRASTNYADSVKGRFTISRDNAKNTVYLQMNSLKPEDTAVYYCNARARGRRYPYSKYYYWGQGTQVTVSS ? high polyreactivity

What measured polyreactivity (PSR sort gate) goes with QVQIVESGGGLVQAGGSLRLSCAASGRIFAYNAMGWYRQAPGKERELVVAISWTGGRTSYADSVKGRFTISCDNAKNTVYLQMNSLKPEDTAVYYCNARYRYRLRGYDYWGQGTQVTVSS ? high polyreactivity

# query: polyreactivity (PSR sort gate) of entry QVQLVESGGRLVQAGGSLRLSCAPSGFMFADYMGWYRQAPGKERALVASISSTGSSTYADSVKGRFTITRDNAKNTVYLPMNSLKPEDTAVYDCAATGVWYSSNDYASEYDYWGQGTQVTVSS high polyreactivity

If you can, please state the reported polyreactivity (PSR sort gate) value of QVRLVESGGGLVQAGGSLRLSCAASGFIFRNNAMGWYRQAPGKERELVAVISFSGGSTYYADSVKGRFTISRDNAKNTVSLQMNSLKPEDTAVYYCTAKGWYYTRRSDYWGQGTQVTVSS . low polyreactivity

What value of measured polyreactivity (PSR sort gate) is listed for QVQLVESGGGLVQAGGSLRLSCAASGSTFYYYARGWYRQAPGKERELVAAIDRDDRTNYADSVKGRFTISRDNAKNTVYLQMNSLKAEDTAVYYCAAVEIYEYDYWGQGTQVTVSS ? low polyreactivity

Would you mind telling me what polyreactivity (PSR sort gate) value was observed for QVQLVESGGGLVQAGGSLRLSCAASGSIFYTNDMGWYRQAPGKERELVAAIRYSGVSTYYADSVKGRFTISRDNAKNTVYLQMNSLKPEDTAVYYCATTAYGYRSYSQSQQDMEYWGQGTQVTVSS ? high polyreactivity

Would you kindly share the measured polyreactivity (PSR sort gate) for QVQLVESGGGLVQAGGSLRLSCAASGRTFYYYGRVWYRQAPGKERDFVAAITRSGGRTYYADSVKGRFTISRDNAKNTVYLQMNSLKPEDTAVYYCATGGYYRYSGLSVYGYPYEYWGQGTQVTVSS ? high polyreactivity

Sample QVQLEESGGGLVQAGGSLRLSSAASGRIFGGYAMGWYRQAPGKEREMVAAITQSGGSTYYADSVKGRFTISRDNAKNTVYLQMNSLTAEDTAVYYCNARLARGYWTPGKERPMEYWGQGTQVTVSS — what was its polyreactivity (PSR sort gate)? low polyreactivity

***
For QVQLVESGGGLVQAGGSLRLSCAASGSTFYVYAMGWYRQAPGKERELGAAIDSGDSTNYADSVKGRVTISRDNAKNTVYLQMNSLKPEDTAVYYCAVGYWDSRYRYDWPNSDYWGQGTQVTVSS , what is its reported polyreactivity (PSR sort gate)? low polyreactivity

Find the recorded polyreactivity (PSR sort gate) belonging to QVQLVESGGGLVQAGGSLRLSCAASGSTFFDYAMGWYRQAPGKERELVAVISDGGTTTYADSVKGRFTISRDNAKNTVYLQMNSLKPVDTAVYYCAAENQDGLLVILGGYGYWGQGTQVTVSS and report it. low polyreactivity

Please give the measured polyreactivity (PSR sort gate) for this sequence: QVQLVESGGGLVQAGGSLRLSCAASGFTFYYYDMGWYRQAPGKERELVAAITTGGSTKYADSVKGRFTISRDNAKNTVYLQMNSLKPEDTAVYYCNADDSVYVFSKYDYWGQGTQVTVSS high polyreactivity
